Tested on: HCV replicon, genotype-1a variant with glutamine 30 changed to glutamate in the NS5A protein
Experiment: microbe, parasite or virus in culture
Assay type: cell-based, HCV genotype 1a
Conditions: HCV replicon genotype 1a Q30E (Q→E) variant; test compound titrated with an NS5A-targeting compound (BMS-790052 fixed at 200 nM); ranking of synergist activity
Quantity measured: Fold-Synergistic 1a (Q30E)

[[record]]
compound = "CC1(C)CC(C(=O)N[C@H](c2nc(-c3ccc(-c4ccc(-c5c[nH]c([C@@H](NC(=O)C6CCOC(C)(C)C6)C(C)(C)C)n5)cc4)cc3)c[nH]2)C(C)(C)C)CCO1 (stereo partly drawn) [Compound W-122]"
recorded_measurement = ">100 fold"

[[record]]
compound = "CC1(C)CCCC(C)(C(=O)N[C@H](c2nc(-c3ccc(-c4ccc(-c5c[nH]c([C@@H](NC(=O)C6(C)CCCC(C)(C)O6)C(C)(C)C)n5)cc4)cc3)c[nH]2)C(C)(C)C)O1 (stereo partly drawn) [Compound W-165]"
recorded_measurement = ">100 fold"


Next:
[in] Find the measured Fold-Synergistic 1a (Q30E) of CO[C@@H](C(=O)N[C@H](c1nc(-c2ccc(-c3ccc(-c4c[nH]c([C@@H](NC(=O)[C@H](OC)C(C)C)C(C)(C)C)n4)cc3)cc2)c[nH]1)C(C)(C)C)C(C)C [Compound L-86] and report it.
[out] >100 fold

----------
Record form. Attribute: Fold-Synergistic 1a (Q30E). Fill in for each entry.
Test system: HCV replicon, genotype-1a variant with glutamine 30 changed to glutamate in the NS5A protein
Experiment: microbe, parasite or virus in culture
Assay type: cell-based, HCV genotype 1a
Settings: HCV replicon genotype 1a Q30E (Q→E) variant; test compound titrated with an NS5A-targeting compound (BMS-790052 fixed at 200 nM); ranking of synergist activity

[[record]]
molecule = "C[C@H]1C[C@H](C)OC(C)(C(=O)N[C@H](c2nc(-c3ccc(-c4ccc(-c5c[nH]c([C@@H](NC(=O)C6(C)O[C@@H](C)C[C@H](C)O6)C(C)(C)C)n5)cc4)cc3)c[nH]2)C(C)(C)C)O1 (stereo partly drawn)"
quantity_measured = "Fold-Synergistic 1a (Q30E)"
recorded_measurement = ">100 fold"

[[record]]
molecule = "CC(C)(C)[C@H](NC(=O)C1(NCC(F)(F)F)CC1)c1nc(-c2ccc(-c3ccc(-c4c[nH]c([C@@H](NC(=O)C5(NCC(F)(F)F)CC5)C(C)(C)C)n4)cc3)cc2)c[nH]1"
quantity_measured = "Fold-Synergistic 1a (Q30E)"
recorded_measurement = ">100 fold"

[[record]]
molecule = "CC(C)(C(=O)N[C@H](c1nc(-c2ccc(-c3ccc(-c4c[nH]c([C@@H](NC(=O)C(C)(C)C(=O)N5CCC(O)CC5)C(C)(C)C)n4)cc3)cc2)c[nH]1)C(C)(C)C)C(=O)N1CCC(O)CC1"
quantity_measured = "Fold-Synergistic 1a (Q30E)"
recorded_measurement = ">10 fold"

[[record]]
molecule = "O=C(c1ccccc1)N1CCC[C@H]1c1ncc(-c2ccc(-c3ccc(-c4cnc([C@@H]5CCCN5C(=O)c5ccccc5)[nH]4)cc3)cc2)[nH]1"
quantity_measured = "Fold-Synergistic 1a (Q30E)"
recorded_measurement = "<10 fold"

[[record]]
molecule = "O=C(c1ccc(-c2ccccc2)cc1)N1CCC[C@H]1c1ncc(-c2ccc(-c3ccc(-c4cnc([C@@H]5CCCN5C(=O)c5ccc(-c6ccccc6)cc5)[nH]4)cc3)cc2)[nH]1"
quantity_measured = "Fold-Synergistic 1a (Q30E)"
recorded_measurement = ">10 fold"

[[record]]
molecule = "Cc1nn(C)c2ncc(C(=O)N3CCC[C@H]3c3ncc(-c4ccc(-c5ccc(-c6cnc([C@@H]7CCCN7C(=O)c7cnc8c(c(C)nn8C)c7Cl)[nH]6)cc5)cc4)[nH]3)c(Cl)c12"
quantity_measured = "Fold-Synergistic 1a (Q30E)"
recorded_measurement = "<10 fold"

[[record]]
molecule = "CC(C)[C@H](NC(=O)C(C)(C)N1C[C@@H](C)O[C@@H](C)C1)c1nc(-c2ccc(-c3ccc(-c4c[nH]c([C@@H](NC(=O)C(C)(C)N5C[C@@H](C)O[C@@H](C)C5)C(C)C)n4)cc3)cc2)c[nH]1"
quantity_measured = "Fold-Synergistic 1a (Q30E)"
recorded_measurement = ">100 fold"

[[record]]
molecule = "CC(C)(C)[C@H](NC(=O)C(=O)N1CCCC1)c1nc(-c2ccc(-c3ccc(-c4c[nH]c([C@@H](NC(=O)C(=O)N5CCCC5)C(C)(C)C)n4)cc3)cc2)c[nH]1"
quantity_measured = "Fold-Synergistic 1a (Q30E)"
recorded_measurement = ">100 fold"

[[record]]
molecule = "CC(C)[C@H](NC(=O)C(=O)N1CCC(F)(F)CC1)c1nc(-c2ccc(-c3ccc(-c4c[nH]c([C@@H](NC(=O)C(=O)N5CCC(F)(F)CC5)C(C)C)n4)cc3)cc2)c[nH]1"
quantity_measured = "Fold-Synergistic 1a (Q30E)"
recorded_measurement = ">100 fold"

[[record]]
molecule = "CC(C)CC(=O)N[C@@H](C)c1nc(-c2ccc(-c3ccc(-c4c[nH]c([C@H](C)NC(=O)CC(C)C)n4)cc3)cc2)c[nH]1"
quantity_measured = "Fold-Synergistic 1a (Q30E)"
recorded_measurement = ">10 fold"


Answer for every listed entry: what is its Fold-Synergistic 1a (Q30E)? The entries follow.
1. CN1CCC(C(=O)N[C@H](c2nc(-c3ccc(-c4ccc(-c5c[nH]c([C@@H](NC(=O)C6CCN(C)CC6)C(C)(C)C)n5)cc4)cc3)c[nH]2)C(C)(C)C)CC1
2. COC(=O)N[C@H](C(=O)NC1(c2nc(-c3ccc(-c4ccc(-c5c[nH]c(C6(NC(=O)[C@@H](NC(=O)OC)C(C)C)Cc7ccccc7C6)n5)cc4)cc3)c[nH]2)Cc2ccccc2C1)C(C)C
3. CC(C)(C)OC(=O)N[C@H]1CCC[C@@H]1C(=O)N[C@H](c1nc(-c2ccc(-c3ccc(-c4c[nH]c([C@@H](NC(=O)[C@H]5CCC[C@@H]5NC(=O)OC(C)(C)C)C(C)(C)C)n4)cc3)cc2)c[nH]1)C(C)(C)C

[out]
>10 fold
<10 fold
>100 fold

For every item below, please supply its Fold-Synergistic 1a (Q30E).
1. O=C(N[C@H](c1nc(-c2ccc(-c3ccc(-c4c[nH]c([C@@H](NC(=O)C5CCC(F)(F)CC5)C5CC5)n4)cc3)cc2)c[nH]1)C1CC1)C1CCC(F)(F)CC1
2. O=C(c1cccc(Oc2ccccc2)c1)N1CCC[C@H]1c1ncc(-c2ccc(-c3ccc(-c4cnc([C@@H]5CCCN5C(=O)c5cccc(Oc6ccccc6)c5)[nH]4)cc3)cc2)[nH]1
3. C[C@@H]1CN(C(=O)C(C)(C)C(=O)N[C@H](c2nc(-c3ccc(-c4ccc(-c5c[nH]c([C@@H](NC(=O)C(C)(C)C(=O)N6C[C@@H](C)O[C@@H](C)C6)C(C)(C)C)n5)cc4)cc3)c[nH]2)C(C)(C)C)C[C@H](C)O1
4. CC(C)(C)OC(=O)N1C[C@@H](O)C[C@H]1C(=O)N[C@H](c1nc(-c2ccc(-c3ccc(-c4c[nH]c([C@@H](NC(=O)[C@@H]5C[C@H](O)CN5C(=O)OC(C)(C)C)C5(C)CC5)n4)cc3)cc2)c[nH]1)C1(C)CC1
5. O=C(c1ccc2c(c1)OCO2)N1CCC[C@H]1c1ncc(-c2ccc(-c3ccc(-c4cnc([C@@H]5CCCN5C(=O)c5ccc6c(c5)OCO6)[nH]4)cc3)cc2)[nH]1

[out]
1. >100 fold
2. <10 fold
3. >100 fold
4. >100 fold
5. <10 fold

----------
Exercise: for every item that follows, state its recorded Fold-Synergistic 1a (Q30E).
Test system: HCV replicon, genotype-1a variant with glutamine 30 changed to glutamate in the NS5A protein
Assay: microbe, parasite or virus in culture
Type: cell-based, HCV genotype 1a
Conditions: HCV replicon genotype 1a Q30E (Q→E) variant; test compound titrated with an NS5A-targeting compound (BMS-790052 fixed at 200 nM); ranking of synergist activity

[[record]]
compound_string = "CC(C)(C(=O)N[C@H](c1nc(-c2ccc(-c3ccc(-c4c[nH]c([C@@H](NC(=O)C(C)(C)C(=O)N5CC6CCC(C5)O6)C(C)(C)C)n4)cc3)cc2)c[nH]1)C(C)(C)C)C(=O)N1CC2CCC(C1)O2"
recorded_measurement = ">10 fold"


Moving on to the next compound.
[in] Answer with the recorded Fold-Synergistic 1a (Q30E) of `CC(C)(C)[C@H](NC(=O)[C@@H]1C[C@@H](F)CN1C(=O)OCCF)c1nc(-c2ccc(-c3ccc(-c4c[nH]c([C@@H](NC(=O)[C@@H]5C[C@@H](F)CN5C(=O)OCCF)C(C)(C)C)n4)cc3)cc2)c[nH]1` only.
[out] >100 fold
